# Experimental target: human ROR1 (Homo sapiens)
# Construct: host or cells: HEK 293T cells, Tet-on system induced with doxycycline
# Test description: ROR1 high content cell-based binding assay
# Test context: read-out: ROR1 Binding 293T Human HC Cell Based Assay IC50
Positions of bridges follow the written chain, without caps; N, C: chain ends. Non-standard residues stand in square brackets, D forms with d. Residues, ends and D or L forms follow the SMILES beside them. NMeF = CN[C@@H](Cc1ccccc1)C(=O)O
Metric name: pIC50
pIC50 field: float, defined as -log10 of concentration (mol/L).

Given the compound CC(C)C[C@@H]1NC(=O)[C@H](Cc2ccc(O)cc2)NC(=O)[C@H](Cc2ccccc2)NC(=O)CSC[C@@H](C(=O)NCC(N)=O)NC(=O)[C@H](CC(C)C)NC(=O)[C@H](Cc2ccccc2)N(C)C(=O)[C@H](Cc2ccc(O)cc2)NC(=O)[C@H](Cc2c[nH]c3ccccc23)NC(=O)CNC(=O)[C@H](Cc2ccc(O)cc2)NC(=O)[C@H](CCCNC(=N)N)NC(=O)[C@H](C(C)C)NC1=O [Example 1055] ({CH2CO}-FYLVRYGWY[NMeF]LCG-NH2; thioether N-12) , write its reported pIC50.
7.54

Given the compound CC(C)C[C@@H]1NC(=O)[C@H](Cc2ccccc2)NC(=O)CSC[C@@H](C(=O)NCC(N)=O)NC(=O)[C@H](CC(C)C)NC(=O)[C@H](Cc2ccccc2)N(C)C(=O)[C@H](Cc2ccc(O)cc2)NC(=O)[C@H](Cc2c[nH]c3ccccc23)NC(=O)CNC(=O)[C@H](CO)NC(=O)[C@H](Cc2ccc(O)cc2)NC(=O)[C@H](C(C)C)NC(=O)[C@H](Cc2c[nH]c3ccccc23)NC1=O [Example 1058] ({CH2CO}-FLWVYSGWY[NMeF]LCG-NH2; thioether N-12) , write its reported pIC50.
6.12

---

# Experimental target: human ROR1 (Homo sapiens, UniProt Q01973)
# Construct: host or cells: HEK 293T cells, Tet-on system induced with doxycycline
# Sequence (Q01973 30-937): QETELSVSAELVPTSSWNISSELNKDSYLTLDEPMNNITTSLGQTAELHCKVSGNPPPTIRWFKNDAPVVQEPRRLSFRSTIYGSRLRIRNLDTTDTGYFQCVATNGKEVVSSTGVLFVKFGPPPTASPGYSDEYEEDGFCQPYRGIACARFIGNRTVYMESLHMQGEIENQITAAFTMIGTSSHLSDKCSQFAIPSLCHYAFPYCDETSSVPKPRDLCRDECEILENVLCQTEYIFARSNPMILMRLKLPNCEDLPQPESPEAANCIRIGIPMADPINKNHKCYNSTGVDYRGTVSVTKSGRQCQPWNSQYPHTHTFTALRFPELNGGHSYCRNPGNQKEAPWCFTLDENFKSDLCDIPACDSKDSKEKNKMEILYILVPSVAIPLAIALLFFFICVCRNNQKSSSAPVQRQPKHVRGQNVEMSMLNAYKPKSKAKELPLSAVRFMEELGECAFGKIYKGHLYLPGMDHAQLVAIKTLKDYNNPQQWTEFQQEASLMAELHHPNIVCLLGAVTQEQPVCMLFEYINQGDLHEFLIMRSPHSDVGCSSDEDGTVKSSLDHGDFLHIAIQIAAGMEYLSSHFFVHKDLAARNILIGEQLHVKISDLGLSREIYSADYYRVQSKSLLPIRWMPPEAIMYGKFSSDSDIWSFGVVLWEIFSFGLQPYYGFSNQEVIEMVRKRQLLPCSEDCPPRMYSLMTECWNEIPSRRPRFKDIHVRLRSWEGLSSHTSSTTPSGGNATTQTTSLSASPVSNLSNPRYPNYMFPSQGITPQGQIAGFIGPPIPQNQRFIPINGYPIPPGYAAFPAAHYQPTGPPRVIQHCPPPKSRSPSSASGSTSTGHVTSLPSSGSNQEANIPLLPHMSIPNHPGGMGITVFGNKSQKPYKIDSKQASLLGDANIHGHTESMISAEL
# Test description: ROR1 high content cell-based binding assay
# Test context: read-out: ROR1 Binding 293T Human HC Cell Based Assay IC50
pIC50: −log10 of the molar value. Positions of bridges follow the written chain, without caps; N, C: chain ends. Non-standard residues stand in square brackets, D forms with d. Residues, ends and D or L forms follow the SMILES beside them. Bip = N[C@@H](Cc1ccc(-c2ccccc2)cc1)C(=O)O; NMeF = CN[C@@H](Cc1ccccc1)C(=O)O; Sar = CNCC(=O)O
Please note: 1 applies when pIC50 is 7 or greater, and 0 applies otherwise.

Could you please find out whether CC(C)C[C@@H]1NC(=O)CNC(=O)[C@H](Cc2ccccc2)N(C)C(=O)CNC(=O)[C@H](Cc2ccc(O)cc2)NC(=O)[C@H](Cc2ccccc2)NC(=O)CSC[C@@H](C(N)=O)NC(=O)[C@H](Cc2c[nH]c3ccccc23)NC(=O)[C@H](Cc2ccc(O)cc2)NC1=O [Example 1105] ({CH2CO}-FYG[NMeF]GLYWC-NH2; thioether N-9) has pIC50 that meets 7 or exceeds it?
0

Could you please find out whether CC(C)C[C@@H]1NC(=O)[C@H](Cc2ccccc2)NC(=O)CSC[C@@H](C(N)=O)NC(=O)[C@H](C(C)C)NC(=O)[C@H](Cc2ccccc2)N(C)C(=O)[C@H](CC(C)C)NC(=O)[C@H](Cc2c[nH]c3ccccc23)NC(=O)CN(C)C(=O)CNC(=O)[C@H](C(C)C)NC(=O)[C@H](Cc2ccc(-c3ccccc3)cc2)NC1=O [Example 1204] ({CH2CO}-FL[Bip]VG[Sar]WL[NMeF]VC-NH2; thioether N-11) has pIC50 that meets 7 or exceeds it?
0

Could you please find out whether CC(C)C[C@@H]1NC(=O)[C@H](Cc2ccc(O)cc2)NC(=O)[C@H](Cc2ccccc2)NC(=O)CSC[C@@H](C(=O)NCC(N)=O)NC(=O)[C@H](CC(C)C)NC(=O)[C@H](Cc2ccccc2)N(C)C(=O)[C@H](Cc2ccc(O)cc2)NC(=O)[C@H](Cc2c[nH]c3ccccc23)NC(=O)CNC(=O)[C@H](CO)NC(=O)[C@H](Cc2ccccc2)NC(=O)[C@H](C(C)C)NC1=O [Example 1035] ({CH2CO}-FYLVFSGWY[NMeF]LCG-NH2; thioether N-12) has pIC50 that meets 7 or exceeds it?
1
